- Test system: Human immunodeficiency virus 1
- procedure-text: Inhibitory activity against LAI strain of HIV-I in MT-4 cell was determined
- Format: functional, organism-based
- recorded-conditions: Human immunodeficiency virus 1, MT4
Task for the reader: assign each of the following molecules its reported IC50.
Numbers only, in nM.

The cases that follow already have their IC50 on record.
                  compound_structure_string  parameter_measured  assay_result
0  Cc1cc(C#N)cc(C)c1Oc1ncnc(Nc2ccc(C#N)cc2)n1                IC50             4
1  N#Cc1ccc(Nc2nc(Cc3c(Cl)cccc3Cl)nc(NO)n2)cc1                IC50           2.4

The molecule CN(C)/C=N\c1nc(Cc2c(Cl)cccc2Cl)nc(Nc2ccc(C#N)cc2)n1 showed IC50 equal to 2.5

* * *

- System: Human immunodeficiency virus 1
- procedure-text: Inhibitory activity against 181C strain of HIV-I in MT-4 cell was determined
- Type: functional, organism-based
- recorded-conditions: Human immunodeficiency virus 1, MT4
parameter-measured: IC50

Look over these answered cases.
                  compound_structure_string                    study_system  parameter_measured  assay_result
0  Cc1cc(C)c(Cc2nc(N)nc(Nc3ccc(C#N)cc3)n2)c(C)c1  Human immunodeficiency virus 1                IC50      0.015 µM
1  CC(=N)Nc1nc(Cc2c(Cl)cccc2Cl)nc(Nc2ccc(C#N)cc2)n1  Human immunodeficiency virus 1                IC50       0.21 µM

Could you now look at the following molecule, please?
Form: item Cc1cc(N)cc(C)c1Oc1nc(N)nc(Nc2ccc(C#N)cc2)n1 ; test system Human immunodeficiency virus 1; IC50: > 100 µM

* * *

- System: Human immunodeficiency virus 1
- procedure-text: Inhibitory activity against 181C strain of HIV-I in MT-4 cell was determined
- Format: functional, organism-based
- recorded-conditions: Human immunodeficiency virus 1, MT4
Flag rule - IC50 less than 400 nM flags satisfied; the remaining entries get not satisfied.

Before answering, review these 5 worked examples.
In [3]: df
Out[3]:
                  compound_structure_string     class_name
0  Cc1cc(I)cc(C)c1Oc1nc(N)nc(Nc2ccc(C#N)cc2)n1      satisfied
1  Cc1cc(C)cc(Cc2nc(N)nc(Nc3ccc(C#N)cc3)n2)c1  not satisfied
2  CNc1nc(Cc2c(Cl)cccc2Cl)nc(Nc2ccc(C#N)cc2)n1  not satisfied
3  Cc1ccc(C)c(Cc2nc(N)nc(Nc3ccc(C#N)cc3)n2)c1  not satisfied
4  CONc1nc(Cc2c(Cl)cccc2Cl)nc(Nc2ccc(C#N)cc2)n1      satisfied

**Query** API: query returns whether the compound falls strictly under 400 nM in IC50. Query: N#Cc1ccc(Nc2nc(Cc3c(Cl)cccc3Cl)nc(N=[N+]=[N-])n2)cc1
**Result** not satisfied

**Query** Strictly below 400 nM in IC50? N#Cc1ccc(Nc2nc(N)nc(Cc3c(Cl)cccc3Cl)n2)cc1
**Result** satisfied

**Query** I'd appreciate it if you could check whether N#Cc1ccc(Nc2nc(N)nc(Cc3c(Cl)cc(Cl)cc3Cl)n2)cc1 has IC50 smaller than 400 nM.
**Result** satisfied

**Query** Dear reviewer, please state whether Cc1cc(C)c(Sc2nc(N)nc(Nc3ccc(C#N)cc3)n2)c(C)c1 has IC50 strictly beneath 400 nM.
**Result** satisfied

**Query** Bench note: check whether N#Cc1ccc(Nc2nc(S)nc(Cc3c(Cl)cccc3Cl)n2)cc1 shows IC50 below 400 nM
**Result** not satisfied
